Biological target: TGFBR1 (Homo sapiens)
Construct: endogenous in cells
Sequence (P36897 34-503): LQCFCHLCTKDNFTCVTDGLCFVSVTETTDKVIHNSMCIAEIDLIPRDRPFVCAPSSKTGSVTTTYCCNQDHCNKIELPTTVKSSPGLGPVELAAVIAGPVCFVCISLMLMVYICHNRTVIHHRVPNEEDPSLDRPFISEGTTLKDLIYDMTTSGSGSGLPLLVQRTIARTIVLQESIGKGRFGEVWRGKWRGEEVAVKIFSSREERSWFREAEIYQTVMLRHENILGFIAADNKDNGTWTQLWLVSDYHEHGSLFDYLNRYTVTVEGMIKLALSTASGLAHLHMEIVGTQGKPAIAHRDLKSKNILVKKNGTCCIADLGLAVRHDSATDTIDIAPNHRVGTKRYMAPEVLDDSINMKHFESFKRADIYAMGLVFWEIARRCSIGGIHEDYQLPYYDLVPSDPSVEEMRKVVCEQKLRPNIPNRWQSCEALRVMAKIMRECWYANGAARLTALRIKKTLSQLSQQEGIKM
Experiment: KAM-matrix competition in K562 lysate
Conditions: read-out: RB50 (the source's name)
READOUT TYPE: IC50

>>> recorded_result("N#CCc1ccc(Nc2nc(NCCCN)cc(Nc3cc(C4CC4)[nH]n3)n2)cc1")
"202 nM"

----------
molecular target: RPS6KB2 (Homo sapiens, UniProt Q9UBS0); construct: endogenous in cells; assay: Imatinib-matrix competition in K562 lysate; conditions: read-out: RB50 (the source's name)
Sequence (Q9UBS0 whole entry): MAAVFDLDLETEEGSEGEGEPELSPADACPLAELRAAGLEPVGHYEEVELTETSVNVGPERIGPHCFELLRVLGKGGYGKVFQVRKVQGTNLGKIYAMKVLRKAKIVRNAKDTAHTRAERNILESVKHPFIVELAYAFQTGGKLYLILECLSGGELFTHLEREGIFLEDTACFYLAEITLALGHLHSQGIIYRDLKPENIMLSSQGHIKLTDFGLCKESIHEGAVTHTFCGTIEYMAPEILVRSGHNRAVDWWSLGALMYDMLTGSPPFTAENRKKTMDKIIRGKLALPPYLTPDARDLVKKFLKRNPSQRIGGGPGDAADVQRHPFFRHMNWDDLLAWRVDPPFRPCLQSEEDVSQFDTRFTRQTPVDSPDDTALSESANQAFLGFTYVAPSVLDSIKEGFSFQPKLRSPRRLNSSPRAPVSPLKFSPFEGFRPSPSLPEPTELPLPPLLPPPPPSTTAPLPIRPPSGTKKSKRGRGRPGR
pIC50: −log10 of the molar value.
READOUT TYPE: pIC50

>>> recorded_result("Cc1ccc(NC(=O)c2ccc(CN3CCN(C)CC3)cc2)cc1Nc1nccc(-c2cccnc2)n1 [Imatinib]")
"< 5.00"

----------
target: AURKC (Homo sapiens); construct: endogenous in cells; assay: KAM-matrix competition in K562 lysate; settings: read-out: RB50 (the source's name)
Sequence (Q9UQB9 whole entry): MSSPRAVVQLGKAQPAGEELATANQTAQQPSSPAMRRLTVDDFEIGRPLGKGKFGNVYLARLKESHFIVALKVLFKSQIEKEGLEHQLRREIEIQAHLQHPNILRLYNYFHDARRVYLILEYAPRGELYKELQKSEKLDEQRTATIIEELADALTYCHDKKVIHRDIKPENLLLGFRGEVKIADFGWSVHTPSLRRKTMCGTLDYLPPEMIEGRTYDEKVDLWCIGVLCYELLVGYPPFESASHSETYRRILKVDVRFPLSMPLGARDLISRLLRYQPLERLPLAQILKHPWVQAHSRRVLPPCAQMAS
pIC50: −log10 of the molar value.
READOUT TYPE: pIC50

>>> recorded_result("N#CCc1ccc(Nc2nc(NCCCN)cc(Nc3cc(C4CC4)[nH]n3)n2)cc1")
7.12

----------
target: MINK1 (Homo sapiens, UniProt Q8N4C8); construct: endogenous in cells; experiment: KAM-matrix competition in K562 lysate; details: read-out: RB50 (the source's name)
Sequence (Q8N4C8 whole entry): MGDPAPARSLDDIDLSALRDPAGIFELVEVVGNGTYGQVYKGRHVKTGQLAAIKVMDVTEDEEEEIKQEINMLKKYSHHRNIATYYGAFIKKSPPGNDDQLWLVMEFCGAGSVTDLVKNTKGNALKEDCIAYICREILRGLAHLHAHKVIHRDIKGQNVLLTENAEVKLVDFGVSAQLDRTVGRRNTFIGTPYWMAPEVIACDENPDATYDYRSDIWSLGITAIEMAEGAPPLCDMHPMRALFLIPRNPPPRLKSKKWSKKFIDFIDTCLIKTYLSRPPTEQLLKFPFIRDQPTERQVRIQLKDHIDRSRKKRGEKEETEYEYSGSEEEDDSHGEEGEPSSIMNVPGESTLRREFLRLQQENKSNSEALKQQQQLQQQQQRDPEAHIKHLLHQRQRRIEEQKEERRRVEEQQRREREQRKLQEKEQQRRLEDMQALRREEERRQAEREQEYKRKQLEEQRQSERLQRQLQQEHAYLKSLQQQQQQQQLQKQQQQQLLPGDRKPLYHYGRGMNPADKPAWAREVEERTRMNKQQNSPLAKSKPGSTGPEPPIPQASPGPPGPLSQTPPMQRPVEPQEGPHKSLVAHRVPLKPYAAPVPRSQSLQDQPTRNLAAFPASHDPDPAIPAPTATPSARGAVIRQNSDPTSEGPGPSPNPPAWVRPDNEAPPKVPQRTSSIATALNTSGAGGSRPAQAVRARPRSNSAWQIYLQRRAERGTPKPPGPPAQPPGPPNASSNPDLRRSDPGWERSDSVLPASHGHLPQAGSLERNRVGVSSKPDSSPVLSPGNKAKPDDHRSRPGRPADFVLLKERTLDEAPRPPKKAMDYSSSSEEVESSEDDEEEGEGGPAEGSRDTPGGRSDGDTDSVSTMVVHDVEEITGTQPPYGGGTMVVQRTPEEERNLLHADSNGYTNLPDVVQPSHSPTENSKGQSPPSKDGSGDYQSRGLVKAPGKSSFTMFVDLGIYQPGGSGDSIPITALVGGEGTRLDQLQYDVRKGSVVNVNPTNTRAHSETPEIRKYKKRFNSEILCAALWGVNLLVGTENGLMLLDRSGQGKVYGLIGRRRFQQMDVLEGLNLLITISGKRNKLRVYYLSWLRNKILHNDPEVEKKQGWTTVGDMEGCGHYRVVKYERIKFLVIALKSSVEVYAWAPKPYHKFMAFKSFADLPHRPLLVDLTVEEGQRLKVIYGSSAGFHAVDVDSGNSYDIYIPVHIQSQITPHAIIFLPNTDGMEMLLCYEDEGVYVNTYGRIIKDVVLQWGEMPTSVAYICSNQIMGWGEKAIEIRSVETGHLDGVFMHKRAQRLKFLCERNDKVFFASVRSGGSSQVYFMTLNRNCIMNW
pIC50: −log10 of the molar value.
READOUT TYPE: pIC50

>>> recorded_result("N#CCc1ccc(Nc2nc(NCCCN)cc(Nc3cc(C4CC4)[nH]n3)n2)cc1 [KAM]")
6.48

----------
Molecular target: MAP3K5 (Homo sapiens, UniProt Q99683)
Construct: endogenous in cells
Sequence (Q99683 1-1374): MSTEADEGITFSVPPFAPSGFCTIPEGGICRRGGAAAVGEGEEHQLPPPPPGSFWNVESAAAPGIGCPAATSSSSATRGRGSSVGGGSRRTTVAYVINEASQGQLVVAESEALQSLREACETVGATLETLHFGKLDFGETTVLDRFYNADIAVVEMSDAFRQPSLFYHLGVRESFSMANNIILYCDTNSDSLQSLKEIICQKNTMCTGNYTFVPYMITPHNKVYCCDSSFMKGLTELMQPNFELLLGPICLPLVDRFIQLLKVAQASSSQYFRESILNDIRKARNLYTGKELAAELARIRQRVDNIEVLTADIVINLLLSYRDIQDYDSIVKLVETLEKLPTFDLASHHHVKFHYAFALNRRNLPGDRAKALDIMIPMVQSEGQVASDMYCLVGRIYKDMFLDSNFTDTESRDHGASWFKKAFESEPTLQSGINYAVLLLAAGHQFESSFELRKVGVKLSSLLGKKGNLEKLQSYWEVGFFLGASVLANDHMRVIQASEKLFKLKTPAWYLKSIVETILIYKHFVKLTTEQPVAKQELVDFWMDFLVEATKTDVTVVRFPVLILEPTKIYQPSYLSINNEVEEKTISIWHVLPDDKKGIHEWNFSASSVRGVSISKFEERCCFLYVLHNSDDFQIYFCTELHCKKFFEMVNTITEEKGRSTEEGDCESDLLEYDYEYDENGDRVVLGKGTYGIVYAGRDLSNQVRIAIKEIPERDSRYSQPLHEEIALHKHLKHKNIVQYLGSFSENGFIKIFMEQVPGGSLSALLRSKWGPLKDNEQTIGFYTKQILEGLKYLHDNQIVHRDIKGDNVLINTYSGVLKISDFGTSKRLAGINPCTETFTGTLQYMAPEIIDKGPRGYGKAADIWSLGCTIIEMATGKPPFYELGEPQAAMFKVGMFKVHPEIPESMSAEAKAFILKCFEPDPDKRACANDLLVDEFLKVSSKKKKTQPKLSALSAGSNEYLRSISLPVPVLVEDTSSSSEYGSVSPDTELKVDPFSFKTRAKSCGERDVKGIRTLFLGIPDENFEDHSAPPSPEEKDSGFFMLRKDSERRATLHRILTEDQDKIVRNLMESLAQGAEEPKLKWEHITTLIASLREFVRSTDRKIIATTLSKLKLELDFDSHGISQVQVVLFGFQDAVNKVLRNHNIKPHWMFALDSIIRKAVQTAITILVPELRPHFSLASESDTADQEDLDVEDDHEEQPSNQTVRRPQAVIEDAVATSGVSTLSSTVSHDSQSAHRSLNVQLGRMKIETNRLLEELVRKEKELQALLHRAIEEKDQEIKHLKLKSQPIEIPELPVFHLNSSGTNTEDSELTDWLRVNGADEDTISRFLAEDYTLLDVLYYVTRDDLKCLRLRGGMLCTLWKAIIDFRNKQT
Experiment: KAM-matrix competition in K562 lysate
Conditions: read-out: RB50 (the source's name)
Experimental: Supplement 12953_2017_125_MOESM1_ESM.zip/MS_Supp Info.xlsx, sheet "KAM" | column: 10 uM KAM; 1 uM KAM; 0.1 uM KAM; 0.01 uM KAM; 0.001 uM KAM; RB50
READOUT TYPE: IC50 (µM)

>>> recorded_result("N#CCc1ccc(Nc2nc(NCCCN)cc(Nc3cc(C4CC4)[nH]n3)n2)cc1")
4.18

// data source = paper PMC5513037
